This collection of values is drawn from the kinase profiling compilation of Christmann-Franck et al. (2016).

molecular target: ZAP70 (human) (UniProt P43403); test: KINOMEscan competition binding; conditions: compound 10.0 µM
Sequence (P43403 whole entry, looked up): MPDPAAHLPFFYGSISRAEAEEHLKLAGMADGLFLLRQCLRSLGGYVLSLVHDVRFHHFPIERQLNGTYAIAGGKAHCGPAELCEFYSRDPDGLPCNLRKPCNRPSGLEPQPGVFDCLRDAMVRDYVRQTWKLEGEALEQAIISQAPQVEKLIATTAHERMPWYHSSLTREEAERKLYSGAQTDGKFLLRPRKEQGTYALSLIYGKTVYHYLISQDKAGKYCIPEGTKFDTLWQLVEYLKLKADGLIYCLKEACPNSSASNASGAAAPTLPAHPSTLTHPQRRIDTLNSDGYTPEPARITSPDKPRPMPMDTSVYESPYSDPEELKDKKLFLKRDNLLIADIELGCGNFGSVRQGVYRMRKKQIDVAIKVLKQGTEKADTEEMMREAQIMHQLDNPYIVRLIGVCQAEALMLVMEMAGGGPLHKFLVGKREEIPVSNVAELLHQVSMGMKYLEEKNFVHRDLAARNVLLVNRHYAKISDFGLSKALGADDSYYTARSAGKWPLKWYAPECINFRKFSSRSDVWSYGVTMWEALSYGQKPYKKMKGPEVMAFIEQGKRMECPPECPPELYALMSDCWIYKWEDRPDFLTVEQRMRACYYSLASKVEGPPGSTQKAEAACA
Quick rule for you: kinase still bound, per cent of control under 90% gets true, anything else gets false.

Solved entries:
Cc1ccc2nc(NCCN)c3ncc(C)n3c2c1	false
O=C(O)c1ccc(Nc2ncc3c(n2)-c2ccc(Cl)cc2C(c2c(F)cccc2F)=NC3)cc1	false

We now examine a further compound.
Query: A record lists CN(C)C/C=C/C(=O)Nc1cccc(Nc2ncc3c(n2)N(C)c2ccccc2C(=O)N3C)c1 . Is its kinase still bound, per cent of control below 90%?
Result: true

###

Assignment: determine reported kinase still bound, per cent of control for the given compounds.
target: CSNK1G3 (human) (UniProt Q9Y6M4); test: KINOMEscan competition binding; settings: compound 10.0 µM
Sequence (Q9Y6M4 whole entry, looked up): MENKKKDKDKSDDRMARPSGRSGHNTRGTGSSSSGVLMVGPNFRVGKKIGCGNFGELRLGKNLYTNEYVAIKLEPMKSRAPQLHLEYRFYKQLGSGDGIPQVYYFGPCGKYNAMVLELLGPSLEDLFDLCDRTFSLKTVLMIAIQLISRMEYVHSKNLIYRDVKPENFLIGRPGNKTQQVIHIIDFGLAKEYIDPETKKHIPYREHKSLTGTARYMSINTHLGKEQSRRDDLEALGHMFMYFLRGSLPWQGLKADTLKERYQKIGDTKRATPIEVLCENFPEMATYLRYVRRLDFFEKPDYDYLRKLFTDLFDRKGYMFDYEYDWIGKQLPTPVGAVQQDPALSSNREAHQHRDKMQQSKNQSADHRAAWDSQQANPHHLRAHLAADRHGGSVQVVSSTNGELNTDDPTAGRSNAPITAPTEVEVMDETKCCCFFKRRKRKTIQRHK
One number for each entry, in %.

See these solved cases before continuing.
Nc1ccc(-c2ccc3ncc4ccc(=O)n(-c5cccc(C(F)(F)F)c5)c4c3c2)cn1	63
Cc1ccc2nc(NCCN)c3ncc(C)n3c2c1	100
COc1cc(N2CCN(C)CC2)ccc1Nc1nc(N)c(C(=O)c2c(Cl)cccc2Cl)s1	79
COc1cc(C(=O)NC2CCN(C)CC2)ccc1Nc1ncc2c(n1)N(C1CCCC1)CCC(=O)N2C(C)C	100
C=CC(=O)Nc1cccc(Oc2nc(Nc3ccc(N4CCN(C)CC4)cc3OC)ncc2Cl)c1	100

Lab note: each compound below needs its kinase still bound, per cent of control filled in.
1. CCC(=O)N1CCN(c2ccc(-n3c(=O)ccc4cnc5ccc(-c6cnc7ccccc7c6)cc5c43)cc2C(F)(F)F)CC1
2. O=C(NC1CC1)c1cccc(-c2ccc3c(NC(=O)C4CC4)n[nH]c3c2)c1
3. O=C(O)c1ccc(Nc2ncc3c(n2)-c2ccc(Cl)cc2C(c2c(F)cccc2F)=NC3)cc1
4. Cc1ccc(NC(=O)c2cccc(C(C)(C)C#N)c2)cc1Nc1ccc2ncn(C)c(=O)c2c1
5. Cc1cc([C@@H](C)Nc2ccccc2C(=O)O)c2nc(N3CCOCC3)cc(=O)n2c1

Result:
[100, 98, 93, 100, 100]

###

Assignment: determine reported kinase still bound, per cent of control for the given compounds.
target: MAP3K13 (human); assay: KINOMEscan competition binding; conditions: compound 10.0 µM
Numbers only, in %.

See these solved cases before continuing.
Cn1c(=O)n(-c2ccc(C(C)(C)C#N)cc2)c2c3cc(-c4cnc5ccccc5c4)ccc3ncc21	100
CCCS(=O)(=O)Nc1ccc(F)c(C(=O)c2c[nH]c3ncc(-c4ccc(Cl)cc4)cc23)c1F	100
CCN1CCN(Cc2ccc(Nc3ncc4c(n3)N(C)c3ccccc3C(=O)N4C)cc2C(F)(F)F)CC1	53
O=C(NC1CC1)c1cccc(-c2ccc3c(NC(=O)C4CC4)n[nH]c3c2)c1	64
COc1cc(C(=O)NC2CCN(C)CC2)ccc1Nc1ncc2c(n1)N(C1CCCC1)CCC(=O)N2C(C)C	100
N#Cc1c(NC(=O)c2cccc3ccccc23)sc2c1CCCC2	83
Cc1ccc(NC(=O)c2cccc(C(C)(C)C#N)c2)cc1Nc1ccc2ncn(C)c(=O)c2c1	100
CCOc1cc2ncc(C#N)c(Nc3ccc(OCc4ccccn4)c(Cl)c3)c2cc1NC(=O)/C=C/CN(C)C	86
OCCCNc1cc(-c2ccnc(Nc3cccc(Cl)c3)n2)ccn1	100
COc1cc(N2CCN(C)CC2)ccc1Nc1nc(N)c(C(=O)c2c(Cl)cccc2Cl)s1	100

Lab note: each compound below needs its kinase still bound, per cent of control filled in.
1. O=C(O)c1ccc(Nc2ncc3c(n2)-c2ccc(Cl)cc2C(c2c(F)cccc2F)=NC3)cc1
2. C[C@@H](Oc1cc(-n2cnc3ccc(CN4CCN(C)CC4)cc32)sc1C(N)=O)c1ccccc1C(F)(F)F
3. O=C(NOC[C@H](O)CO)c1ccc(F)c(F)c1Nc1ccc(I)cc1F
4. C=CC(=O)Nc1cccc(Nc2nc(N[C@H]3CC[C@H](N(C)C)CC3)nc3c2ncn3C(C)C)c1
5. Nc1ccc(-c2ccc3ncc4ccc(=O)n(-c5cccc(C(F)(F)F)c5)c4c3c2)cn1
6. C=CC(=O)Nc1cc(NC(=O)c2ccc(C)c(NC(=O)c3ccno3)c2)cc(C(F)(F)F)c1

Result:
[100, 87, 86, 79, 100, 98]

###

target: MYO3A (human); experiment: KINOMEscan competition binding; conditions: compound 10.0 µM
Assignment: determine reported kinase still bound, per cent of control for the given molecules.
One number for each entry, in %.

Cc1cc([C@@H](C)Nc2ccccc2C(=O)O)c2nc(N3CCOCC3)cc(=O)n2c1	97

Lab note: each molecule below needs its kinase still bound, per cent of control filled in.
1. O=C1Nc2ccc(I)cc2/C1=C/c1cc(Br)c(O)c(Br)c1
2. O=C(NOC[C@H](O)CO)c1ccc(F)c(F)c1Nc1ccc(I)cc1F
3. Nc1ccc(-c2ccc3ncc4ccc(=O)n(-c5cccc(C(F)(F)F)c5)c4c3c2)cn1
4. OCCCNc1cc(-c2ccnc(Nc3cccc(Cl)c3)n2)ccn1
5. COc1cc(C(=O)NC2CCN(C)CC2)ccc1Nc1ncc2c(n1)N(C1CCCC1)C(C)CC(=O)N2C (stereo unspecified)
6. C=CC(=O)Nc1cc(NC(=O)c2ccc(C)c(NC(=O)c3ccno3)c2)cc(C(F)(F)F)c1

Result:
1. 2.5
2. 47
3. 100
4. 100
5. 100
6. 93

Lab note: each molecule below needs its kinase still bound, per cent of control filled in.
1. COc1cc(N2CCN(C)CC2)ccc1Nc1nc(N)c(C(=O)c2c(Cl)cccc2Cl)s1
2. CCN1CCN(Cc2ccc(Nc3ncc4c(n3)N(C)c3ccccc3C(=O)N4C)cc2C(F)(F)F)CC1

Result:
1. 85
2. 88

Lab note: each molecule below needs its kinase still bound, per cent of control filled in.
1. C=CC(=O)Nc1cccc(Oc2nc(Nc3ccc(N4CCN(C)CC4)cc3OC)ncc2Cl)c1
2. O=C(O)c1ccc(Nc2ncc3c(n2)-c2ccc(Cl)cc2C(c2c(F)cccc2F)=NC3)cc1

Result:
[28, 80]

###

system: EGFR (human), P00533 [746-750 del]; assay: KINOMEscan competition binding; settings: compound 10.0 µM
Sequence (P00533 whole entry, looked up, stated change not applied): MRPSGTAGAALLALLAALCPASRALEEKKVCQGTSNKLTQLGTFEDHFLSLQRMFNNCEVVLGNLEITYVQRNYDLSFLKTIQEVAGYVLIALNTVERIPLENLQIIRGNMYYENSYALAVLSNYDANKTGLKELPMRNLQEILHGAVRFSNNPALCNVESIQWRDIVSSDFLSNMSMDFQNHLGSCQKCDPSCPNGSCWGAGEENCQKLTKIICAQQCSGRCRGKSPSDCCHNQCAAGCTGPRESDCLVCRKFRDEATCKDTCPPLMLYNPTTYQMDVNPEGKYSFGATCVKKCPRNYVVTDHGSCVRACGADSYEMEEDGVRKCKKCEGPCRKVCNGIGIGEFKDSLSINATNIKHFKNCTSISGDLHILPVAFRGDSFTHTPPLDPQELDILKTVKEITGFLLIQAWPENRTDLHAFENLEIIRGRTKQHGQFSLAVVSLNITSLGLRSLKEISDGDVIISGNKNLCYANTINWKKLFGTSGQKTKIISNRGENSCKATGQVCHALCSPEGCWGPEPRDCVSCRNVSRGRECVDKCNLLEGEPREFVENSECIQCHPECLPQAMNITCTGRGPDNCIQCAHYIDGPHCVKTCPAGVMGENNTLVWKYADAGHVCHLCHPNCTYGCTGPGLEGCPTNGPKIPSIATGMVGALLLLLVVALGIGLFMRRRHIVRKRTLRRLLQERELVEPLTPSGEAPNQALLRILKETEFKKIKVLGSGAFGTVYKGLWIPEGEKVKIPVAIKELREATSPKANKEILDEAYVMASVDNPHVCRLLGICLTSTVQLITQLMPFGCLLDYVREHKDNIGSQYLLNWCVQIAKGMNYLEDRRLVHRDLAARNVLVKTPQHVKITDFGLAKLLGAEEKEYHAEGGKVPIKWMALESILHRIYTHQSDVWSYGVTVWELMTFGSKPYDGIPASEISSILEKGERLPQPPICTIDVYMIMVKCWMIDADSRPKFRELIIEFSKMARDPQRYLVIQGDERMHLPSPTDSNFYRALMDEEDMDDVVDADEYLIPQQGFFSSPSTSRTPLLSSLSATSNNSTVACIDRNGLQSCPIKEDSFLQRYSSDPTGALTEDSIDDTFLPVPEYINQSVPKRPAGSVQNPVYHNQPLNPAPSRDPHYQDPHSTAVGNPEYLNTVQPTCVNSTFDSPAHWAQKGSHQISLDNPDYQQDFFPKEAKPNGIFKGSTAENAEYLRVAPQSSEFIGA
Assignment: determine reported kinase still bound, per cent of control for the given molecules.
Answers are plain numbers, in %.

See these solved cases before continuing.
C=CC(=O)Nc1cccc(Nc2nc(N[C@H]3CC[C@H](N(C)C)CC3)nc3c2ncn3C(C)C)c1	88
Cc1cc([C@@H](C)Nc2ccccc2C(=O)O)c2nc(N3CCOCC3)cc(=O)n2c1	100

Lab note: each molecule below needs its kinase still bound, per cent of control filled in.
1. COc1cc(C(=O)NC2CCN(C)CC2)ccc1Nc1ncc2c(n1)N(C1CCCC1)C(C)CC(=O)N2C (centres undefined)
2. Cn1c(=O)n(-c2ccc(C(C)(C)C#N)cc2)c2c3cc(-c4cnc5ccccc5c4)ccc3ncc21

Result:
100
100

###

system: FLT3 (human), P36888 [N841I]; experiment: KINOMEscan competition binding; settings: compound 10.0 µM
Quick rule for you: kinase still bound, per cent of control under 30% gets label 1, anything else gets label 0.

CCCS(=O)(=O)Nc1ccc(F)c(C(=O)c2c[nH]c3ncc(Cl)cc23)c1F	label 1
C=CC(=O)Nc1cc(NC(=O)c2ccc(C)c(NC(=O)c3ccno3)c2)cc(C(F)(F)F)c1	label 0
O=c1cc(N2CCOCC2)oc2c(-c3cccc4c3sc3ccccc34)cccc12	label 0

Query: A record lists O=C(Nc1cccc(Nc2ncc(Br)c(NCCc3cnc[nH]3)n2)c1)N1CCCC1 . Is its kinase still bound, per cent of control below 30%?
Result: label 1

Query: A record lists O=C1NC(=O)/C(=C/c2ccc3nccc(-c4ccncc4)c3c2)S1 . Is its kinase still bound, per cent of control below 30%?
Result: label 0

Query: A record lists OCCCNc1cc(-c2ccnc(Nc3cccc(Cl)c3)n2)ccn1 . Is its kinase still bound, per cent of control below 30%?
Result: label 0

###

biological target: MAP2K5 (human); assay: KINOMEscan competition binding; details: compound 10.0 µM
Assignment: determine reported kinase still bound, per cent of control for the given compounds.
Express your answer as a number followed by its unit.

O=C(NOC[C@H](O)CO)c1ccc(F)c(F)c1Nc1ccc(I)cc1F	86%
CCOc1cc2ncc(C#N)c(Nc3ccc(OCc4ccccn4)c(Cl)c3)c2cc1NC(=O)/C=C/CN(C)C	1.8%
C=CC(=O)Nc1cc(NC(=O)c2ccc(C)c(NC(=O)c3ccno3)c2)cc(C(F)(F)F)c1	80%
O=C1Nc2ccc(I)cc2/C1=C/c1cc(Br)c(O)c(Br)c1	56%

Query: Form field - read-out: kinase still bound, per cent of control; system: MAP2K5 (human); submitted item: CCCS(=O)(=O)Nc1ccc(F)c(C(=O)c2c[nH]c3ncc(-c4ccc(Cl)cc4)cc23)c1F
Result: 0.15%

###

Assignment: determine reported kinase still bound, per cent of control for the given compounds.
biological target: CDK3 (human) (UniProt Q00526); experiment: KINOMEscan competition binding; settings: compound 10.0 µM
Sequence (Q00526 whole entry, looked up): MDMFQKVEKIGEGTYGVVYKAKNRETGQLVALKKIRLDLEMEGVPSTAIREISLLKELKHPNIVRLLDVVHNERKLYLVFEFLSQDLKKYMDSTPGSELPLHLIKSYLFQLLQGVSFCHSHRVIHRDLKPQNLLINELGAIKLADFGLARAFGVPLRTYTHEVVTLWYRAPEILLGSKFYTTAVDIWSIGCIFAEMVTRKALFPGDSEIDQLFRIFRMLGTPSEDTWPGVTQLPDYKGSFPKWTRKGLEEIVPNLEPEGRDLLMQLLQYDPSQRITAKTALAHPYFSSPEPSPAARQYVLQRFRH
Answers are plain numbers, in %.

See these solved cases before continuing.
OCCCNc1cc(-c2ccnc(Nc3cccc(Cl)c3)n2)ccn1	100
Cc1ccc(C(=O)Nc2cccc(C(F)(F)F)c2)cc1Nc1cncc(C(N)=O)c1	100
C[C@@H](Oc1cc(-n2cnc3ccc(CN4CCN(C)CC4)cc32)sc1C(N)=O)c1ccccc1C(F)(F)F	100
CCC(=O)N1CCN(c2ccc(-n3c(=O)ccc4cnc5ccc(-c6cnc7ccccc7c6)cc5c43)cc2C(F)(F)F)CC1	100
N#Cc1c(NC(=O)c2cccc3ccccc23)sc2c1CCCC2	97

Lab note: each compound below needs its kinase still bound, per cent of control filled in.
1. CCCS(=O)(=O)Nc1ccc(F)c(C(=O)c2c[nH]c3ncc(-c4ccc(Cl)cc4)cc23)c1F
2. CN(C)C/C=C/C(=O)Nc1cccc(Nc2ncc3c(n2)N(C)c2ccccc2C(=O)N3C)c1
3. COc1cc(C(=O)NC2CCN(C)CC2)ccc1Nc1ncc2c(n1)N(C1CCCC1)CCC(=O)N2C(C)C
4. O=C(O)c1ccc(Nc2ncc3c(n2)-c2ccc(Cl)cc2C(c2c(F)cccc2F)=NC3)cc1

Result:
94
100
100
100
